biological target: HIV Env of isolate T255-34 (clade AG) (HIV); experiment: cell-based or functional assay
# Lookup of reported IC80 (µg/ml) with constrains keyed by entry
Response body: numeric value in µg/mL, unit text excluded.

>>> numeric_value("ePGDM5 (antibody, V domains shown) VH: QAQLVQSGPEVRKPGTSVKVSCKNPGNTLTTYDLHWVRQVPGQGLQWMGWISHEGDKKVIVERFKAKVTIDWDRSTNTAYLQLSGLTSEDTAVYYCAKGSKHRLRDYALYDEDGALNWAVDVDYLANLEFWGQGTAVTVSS VL: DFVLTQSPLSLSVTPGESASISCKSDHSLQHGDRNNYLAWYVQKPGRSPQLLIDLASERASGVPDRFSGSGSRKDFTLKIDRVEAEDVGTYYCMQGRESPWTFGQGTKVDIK")
0.071

Query block: Consider the binder shown here: ePGDM13 (antibody, V domains shown) VH: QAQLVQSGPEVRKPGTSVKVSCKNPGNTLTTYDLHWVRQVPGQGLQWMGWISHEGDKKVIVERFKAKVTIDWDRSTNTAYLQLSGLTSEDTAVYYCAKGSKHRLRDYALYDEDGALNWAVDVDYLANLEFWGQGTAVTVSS VL: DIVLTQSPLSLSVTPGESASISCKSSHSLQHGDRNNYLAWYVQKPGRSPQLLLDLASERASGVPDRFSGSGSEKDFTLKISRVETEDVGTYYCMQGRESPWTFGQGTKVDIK What is its recorded IC80 (µg/ml) with constrains?
Result block: 0.029

Query block: Also need PGDM1400 (antibody, V domains shown) VH: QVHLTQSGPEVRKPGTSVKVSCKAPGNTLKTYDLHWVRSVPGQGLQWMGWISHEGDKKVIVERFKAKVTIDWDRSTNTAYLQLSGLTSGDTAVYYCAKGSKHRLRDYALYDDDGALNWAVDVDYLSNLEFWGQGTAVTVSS VL: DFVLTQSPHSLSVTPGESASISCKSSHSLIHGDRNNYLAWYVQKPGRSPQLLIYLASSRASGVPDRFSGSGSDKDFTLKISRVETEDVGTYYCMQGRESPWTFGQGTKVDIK , thanks.
Result block: 0.182

Query block: Same lookup for ePGDM9 (antibody, V domains shown) VH: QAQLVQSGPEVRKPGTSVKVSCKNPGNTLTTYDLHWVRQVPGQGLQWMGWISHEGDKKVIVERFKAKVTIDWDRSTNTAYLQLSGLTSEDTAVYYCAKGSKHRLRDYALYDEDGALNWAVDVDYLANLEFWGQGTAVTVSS VL: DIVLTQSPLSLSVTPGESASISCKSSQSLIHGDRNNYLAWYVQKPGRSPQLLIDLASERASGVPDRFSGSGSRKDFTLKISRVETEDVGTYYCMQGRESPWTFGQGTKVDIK , please.
Result block: 0.008
